- Tested on: Saccharomyces cerevisiae BY4741 SeMeCo community
- TEST PROTOCOL: z-score of subpopulation abundance vs DMSO median, subpopulation auxotrophic for HLUM; higher = larger share of this subpopulation than in DMSO controls
- STUDY CONDITIONS: 10 µM; 24 h; SM minimal medium; subpopulation (auxotrophy): HLUM
MEASURED PROPERTY: z-score of subpopulation abundance
Answer using only a numeral; do not append any unit.

Look up z-score of subpopulation abundance: Cc1ccc(Nc2c(F)cccc2Cl)c(CC(=O)O)c1
-0.5

====

Measured z-score of subpopulation abundance, listed per entry.
- Tested on: Saccharomyces cerevisiae BY4741 SeMeCo community
- TEST PROTOCOL: z-score of subpopulation abundance vs DMSO median, subpopulation auxotrophic for LUM; higher = larger share of this subpopulation than in DMSO controls
- STUDY CONDITIONS: 10 µM; 24 h; SM minimal medium; subpopulation (auxotrophy): LUM
Where a name gives a salt, the structure may show the parent alone.
Answer using only a numeral; do not append any unit.

| COMPOUND | SUBJECT OF TEST | z-score of subpopulation abundance |
| --- | --- | --- |
| CCc1nc(N)nc(N)c1-c1ccc(Cl)cc1 | Saccharomyces cerevisiae BY4741 SeMeCo community | 0.49 |
| Nc1ccc(S(=O)(=O)NC(=O)c2ccccc2)cc1 [Sulfabenzamide] | Saccharomyces cerevisiae BY4741 SeMeCo community | -0.19 |
| N[C@@H]1CCCCN(c2c(F)cc3c(=O)c(C(=O)O)cn(C4CC4)c3c2Cl)C1 [Besifloxacin HCl] | Saccharomyces cerevisiae BY4741 SeMeCo community | -0.19 |

Look up z-score of subpopulation abundance: CO[C@H]1C[C@@H]2CC[C@@H](C)[C@@](O)(O2)C(=O)C(=O)N2CCCC[C@H]2C(=O)O[C@H]([C@H](C)C[C@@H]2CC[C@@H](OP(C)(C)=O)[C@H](OC)C2)CC(=O)[C@H](C)/C=C(\C)[C@@H](O)[C@@H](OC)C(=O)[C@H](C)C[C@H](C)/C=C/C=C/C=C/1C
11

Look up z-score of subpopulation abundance: O=C(Cn1ccnc1[N+](=O)[O-])NCc1ccccc1
0.15

Look up z-score of subpopulation abundance: CC(C)[C@H](N)C(=O)OCC(CO)OCn1cnc2c(=O)[nH]c(N)nc21 (some centres not stated) [Valganciclovir HCl]
0.07

Look up z-score of subpopulation abundance: Cc1cc(O)c(C(=O)N[C@@H](C(=O)N[C@@H]2C(=O)N3C(C(=O)O)=C(CSc4nnnn4C)CS[C@H]23)c2ccc(O)cc2)cn1 [Cefpiramide sodium]
-0.42

====

- Test system: Saccharomyces cerevisiae BY4741 SeMeCo community
- TEST PROTOCOL: z-score of subpopulation abundance vs DMSO median, subpopulation auxotrophic for HLM; higher = larger share of this subpopulation than in DMSO controls
- STUDY CONDITIONS: 10 µM; 24 h; SM minimal medium; subpopulation (auxotrophy): HLM
Structures can show the parent of a compound that is named as a salt.
MEASURED PROPERTY: z-score of subpopulation abundance
Answer using only a numeral; do not append any unit.

| MOLECULE | VAL |
| --- | --- |
| O=C1OC(CN2CCOCC2)CN1/N=C/c1ccc([N+](=O)[O-])o1 (stereo not drawn) [Furaltadone HCl] | -0.4 |
| CC[C@H]1OC(=O)C[C@@H](O)[C@H](C)[C@@H](O[C@@H]2O[C@H](C)[C@@H](O)[C@H](N(C)C)[C@H]2O)[C@@H](CCN2C[C@H](C)C[C@H](C)C2)C[C@@H](C)C(=O)/C=C/C(C)=C/[C@@H]1CO[C@@H]1O[C@H](C)[C@@H](O)[C@@H](OC)[C@H]1OC | 0.13 |

Look up z-score of subpopulation abundance: CN1CCN(CCCN2c3ccccc3Sc3ccc(Cl)cc32)CC1 [Prochlorperazine dimaleate salt]
0.12

====

- System: Saccharomyces cerevisiae BY4741 SeMeCo community
- TEST PROTOCOL: z-score of subpopulation abundance vs DMSO median, subpopulation auxotrophic for HLU; higher = larger share of this subpopulation than in DMSO controls
- STUDY CONDITIONS: 10 µM; 24 h; SM minimal medium; subpopulation (auxotrophy): HLU
Measured z-score of subpopulation abundance, listed per entry.
Answer using only a numeral; do not append any unit.

Previously resolved entries follow.
| COMPOUND | z-score of subpopulation abundance |
| --- | --- |
| Nc1ccc(S(=O)(=O)c2ccc(N)cc2)cc1 | 0.22 |
| C[C@@H](c1ncncc1F)[C@](O)(Cn1cncn1)c1ccc(F)cc1F | 16.6 |
| Cc1ccc(-c2ncc(Cl)cc2-c2ccc(S(C)(=O)=O)cc2)cn1 | 0.34 |
| CCN1CCN(C(=O)N[C@@H](C(=O)N[C@@H]2C(=O)N3[C@@H]2SC(C)(C)[C@@H]3C(=O)O)c2ccccc2)C(=O)C1=O [Piperacillin Sodium] | 0.68 |
| COc1ccc2c(c1)c(CC(=O)O)c(C)n2C(=O)c1ccc(Cl)cc1 | -0.33 |

Look up z-score of subpopulation abundance: CO[C@H]1C[C@@H]2CC[C@@H](C)[C@@](O)(O2)C(=O)C(=O)N2CCCC[C@H]2C(=O)O[C@H]([C@H](C)C[C@@H]2CC[C@H](n3cnnn3)[C@H](OC)C2)CC(=O)[C@H](C)/C=C(\C)[C@@H](O)[C@@H](OC)C(=O)[C@H](C)C[C@H](C)/C=C/C=C/C=C/1C
18.8

Look up z-score of subpopulation abundance: CO[C@H]1C[C@@H]2CC[C@@H](C)[C@@](O)(O2)C(=O)C(=O)N2CCCC[C@H]2C(=O)O[C@H]([C@H](C)C[C@@H]2CC[C@@H](OCCO)[C@H](OC)C2)CC(=O)[C@H](C)/C=C(\C)[C@@H](O)[C@@H](OC)C(=O)[C@H](C)C[C@H](C)/C=C/C=C/C=C/1C [Everolimus (RAD001)]
22.9

====

- Tested on: Saccharomyces cerevisiae BY4741 SeMeCo community
- TEST PROTOCOL: z-score of subpopulation abundance vs DMSO median, subpopulation auxotrophic for HU; higher = larger share of this subpopulation than in DMSO controls
- STUDY CONDITIONS: 10 µM; 24 h; SM minimal medium; subpopulation (auxotrophy): HU
Structures can show the parent of a compound that is named as a salt.
MEASURED PROPERTY: z-score of subpopulation abundance
Answer using only a numeral; do not append any unit.

Previously resolved entries follow.
| MOLECULE | MEASURED PROPERTY | VAL |
| --- | --- | --- |
| CCCCCCCCN=C(N)NC(N)=NCc1ccc(Cl)c(Cl)c1 [Olanexidine Hydrochloride semihydrate] | z-score of subpopulation abundance | 5.71 |
| CCCCN1CCCCC1C(=O)Nc1c(C)cccc1C (centres undefined) [Bupivacaine HCl] | z-score of subpopulation abundance | -0.26 |
| COc1ccc(C2CNC(=O)C2)cc1OC1CCCC1 (centres undefined) [Rolipram] | z-score of subpopulation abundance | -0.85 |
| CC[N+](CC)(CC)CCOc1cccc(OCC[N+](CC)(CC)CC)c1OCC[N+](CC)(CC)CC [Gallamine Triethiodide] | z-score of subpopulation abundance | 0.25 |
| CC[C@H]1OC(=O)C[C@@H](O)[C@H](C)[C@@H](O[C@@H]2O[C@H](C)[C@@H](O)[C@H](N(C)C)[C@H]2O)[C@@H](CCN2C[C@H](C)C[C@H](C)C2)C[C@@H](C)C(=O)/C=C/C(C)=C/[C@@H]1CO[C@@H]1O[C@H](C)[C@@H](O)[C@@H](OC)[C@H]1OC [Tilmicosin] | z-score of subpopulation abundance | 1.52 |

Record O=c1[nH]c(=O)n([C@H]2C[C@H](O)[C@@H](CO)O2)cc1I : what is its z-score of subpopulation abundance with Saccharomyces cerevisiae BY4741 SeMeCo community?
-0.23

Record N/C(=N\N=C\c1ccc(Cl)cc1)N/N=C/c1ccc(Cl)cc1 [Robenidine Hydrochoride] : what is its z-score of subpopulation abundance with Saccharomyces cerevisiae BY4741 SeMeCo community?
-0.45

Record COc1ccc(C2CNC(=O)C2)cc1OC1CCCC1 (stereo not drawn) [S- (+)-Rolipram] : what is its z-score of subpopulation abundance with Saccharomyces cerevisiae BY4741 SeMeCo community?
-0.33

Record Cc1nnc(SCC2=C(C(=O)O)N3C(=O)[C@@H](NC(=O)Cn4cc(Cl)c(=O)c(Cl)c4)[C@H]3SC2)s1 : what is its z-score of subpopulation abundance with Saccharomyces cerevisiae BY4741 SeMeCo community?
-0.74

Record Cc1cc(-c2ccc(/N=N/c3ccc4c(S(=O)(=O)O)cc(S(=O)(=O)O)c(N)c4c3O)c(C)c2)ccc1/N=N/c1ccc2c(S(=O)(=O)O)cc(S(=O)(=O)O)c(N)c2c1O : what is its z-score of subpopulation abundance with Saccharomyces cerevisiae BY4741 SeMeCo community?
10.3

Record COc1cccc2c1C(=O)c1c(O)c3c(c(O)c1C2=O)C[C@@](O)(C(C)=O)C[C@@H]3O[C@H]1C[C@H](N)[C@H](O)[C@H](C)O1 [Daunorubicin HCl] : what is its z-score of subpopulation abundance with Saccharomyces cerevisiae BY4741 SeMeCo community?
4.21

Record C[N+]1(C)CCC(OC(=O)C(O)(c2ccccc2)C2CCCC2)C1 (centres undefined) [Glycopyrrolate] : what is its z-score of subpopulation abundance with Saccharomyces cerevisiae BY4741 SeMeCo community?
0.57

Record O=C1c2cccc3c2[C@H](CCC3)CN1[C@@H]1CN2CCC1CC2 [Palonosetron] : what is its z-score of subpopulation abundance with Saccharomyces cerevisiae BY4741 SeMeCo community?
-0.06

Record COCCCN1CCC(NC(=O)c2cc(Cl)c(N)c3c2OCC3)CC1 [Prucalopride] : what is its z-score of subpopulation abundance with Saccharomyces cerevisiae BY4741 SeMeCo community?
0.16

Record CCCCCOc1ccc(-c2cc(-c3ccc(C(=O)N[C@H]4C[C@@H](O)[C@@H](O)NC(=O)[C@@H]5[C@@H](O)[C@@H](C)CN5C(=O)[C@H]([C@H](O)CC(N)=O)NC(=O)[C@H]([C@H](O)[C@@H](O)c5ccc(O)c(OS(=O)(=O)O)c5)NC(=O)[C@@H]5C[C@@H](O)CN5C(=O)[C@H]([C@@H](C)O)NC4=O)cc3)no2)cc1 [Micafungin Sodium] : what is its z-score of subpopulation abundance with Saccharomyces cerevisiae BY4741 SeMeCo community?
13.2
